- Measured target: Peroxisome proliferator-activated receptor alpha (Homo sapiens) (UniProt Q07869)
- Sequence (Q07869 whole entry, looked up, the tested form may be a part): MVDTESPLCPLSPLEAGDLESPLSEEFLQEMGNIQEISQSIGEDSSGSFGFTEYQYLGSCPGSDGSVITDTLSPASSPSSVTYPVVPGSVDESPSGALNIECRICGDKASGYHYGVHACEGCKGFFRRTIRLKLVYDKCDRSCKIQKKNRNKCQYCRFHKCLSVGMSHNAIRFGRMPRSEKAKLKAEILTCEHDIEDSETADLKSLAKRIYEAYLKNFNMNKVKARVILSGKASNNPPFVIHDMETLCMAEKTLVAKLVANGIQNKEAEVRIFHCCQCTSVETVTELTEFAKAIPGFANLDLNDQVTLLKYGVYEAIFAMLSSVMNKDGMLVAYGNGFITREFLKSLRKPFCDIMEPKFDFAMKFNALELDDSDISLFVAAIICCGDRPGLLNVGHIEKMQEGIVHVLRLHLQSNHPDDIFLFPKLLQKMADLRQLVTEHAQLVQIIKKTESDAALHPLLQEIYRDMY
- Measurement notes: Displacement of fluormone pan-PPAR green from GST-tagged human PPARalpha ligand binding domain after 3 hrs by TR-FRET assay
Reported metric: pIC50
Numbers only, as −log10 of the molar value.

Problem: Return pIC50 measured with Peroxisome proliferator-activated receptor alpha (Homo sapiens) (UniProt Q07869) given this molecule: Cc1cc(C(=O)O)c2c(C(C)C)nn(-c3ccc(Cl)cc3)c2n1
Result: 5.35

###

- Measured target: Peroxisome proliferator-activated receptor alpha (Mus musculus, UniProt P23204)
- Sequence (P23204 whole entry, the tested form may be a part): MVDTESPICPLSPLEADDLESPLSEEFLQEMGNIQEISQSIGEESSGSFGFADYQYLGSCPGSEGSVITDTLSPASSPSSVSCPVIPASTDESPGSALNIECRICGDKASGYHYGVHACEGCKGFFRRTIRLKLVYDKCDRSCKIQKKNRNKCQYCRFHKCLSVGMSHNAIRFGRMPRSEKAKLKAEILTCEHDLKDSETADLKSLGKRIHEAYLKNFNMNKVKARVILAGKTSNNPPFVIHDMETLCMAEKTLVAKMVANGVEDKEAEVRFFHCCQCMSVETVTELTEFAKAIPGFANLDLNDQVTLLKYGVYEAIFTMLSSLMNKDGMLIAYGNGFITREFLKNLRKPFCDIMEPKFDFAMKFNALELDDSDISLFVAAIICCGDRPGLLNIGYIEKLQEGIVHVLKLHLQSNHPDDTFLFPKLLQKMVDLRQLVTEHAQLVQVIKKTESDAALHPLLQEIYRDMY
- Measurement notes: Transactivation of mouse GAL4-fused PPARalpha expressed in human HepG2 cells after 24 hrs by dual renilla-luciferase reporter gene assay
Reported metric: EC50

Problem: Query: EC50; subject: Cc1cc(C(=O)O)c2c(C(C)C)nn(-c3ccc(Cl)cc3)c2n1
Result: 11.3 µM
